These measurements were taken from paper PMC10786891.

Molecular target: T1, EsCas13d, nuclease-dead (Eubacterium siraeum, UniProt B0MS50, R295A;H300A;R849A;H854A)
T1 sequence: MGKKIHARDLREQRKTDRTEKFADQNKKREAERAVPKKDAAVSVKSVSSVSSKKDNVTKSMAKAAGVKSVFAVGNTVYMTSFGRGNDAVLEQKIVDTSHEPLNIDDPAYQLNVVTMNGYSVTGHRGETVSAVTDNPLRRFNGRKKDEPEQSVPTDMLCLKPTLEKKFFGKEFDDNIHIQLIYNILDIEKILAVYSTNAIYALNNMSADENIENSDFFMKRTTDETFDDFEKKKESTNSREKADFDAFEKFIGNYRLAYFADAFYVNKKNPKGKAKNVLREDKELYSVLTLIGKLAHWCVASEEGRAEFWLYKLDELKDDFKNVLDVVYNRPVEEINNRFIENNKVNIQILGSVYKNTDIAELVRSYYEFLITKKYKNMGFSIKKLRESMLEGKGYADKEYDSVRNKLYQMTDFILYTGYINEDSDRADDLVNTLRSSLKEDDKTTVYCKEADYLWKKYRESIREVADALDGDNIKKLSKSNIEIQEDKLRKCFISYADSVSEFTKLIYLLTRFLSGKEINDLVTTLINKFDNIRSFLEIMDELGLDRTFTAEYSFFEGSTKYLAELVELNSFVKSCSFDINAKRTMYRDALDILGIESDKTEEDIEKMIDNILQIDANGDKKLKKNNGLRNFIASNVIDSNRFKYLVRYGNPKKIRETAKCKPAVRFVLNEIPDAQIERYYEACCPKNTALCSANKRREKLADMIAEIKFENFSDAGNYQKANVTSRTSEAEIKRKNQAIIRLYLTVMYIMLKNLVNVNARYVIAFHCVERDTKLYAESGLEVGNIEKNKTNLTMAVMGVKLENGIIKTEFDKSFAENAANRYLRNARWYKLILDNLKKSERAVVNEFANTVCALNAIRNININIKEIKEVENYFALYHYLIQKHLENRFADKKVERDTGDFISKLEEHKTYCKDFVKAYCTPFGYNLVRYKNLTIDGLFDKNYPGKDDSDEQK
Assay: crRNA (strand 1, pre-loaded); Mg2+; 40 mM Tris-HCl pH 7.5, 150 mM NaCl, 6 mM MgCl2, 1 mM DTT, 0.1% Tween-20, 0.2 mg/ml BSA; 25 C; 10 min per concentration, then washed
Conditions: tags: His6-TwinStrep-SUMO cleaved; N-terminal SNAP kept (SNAP-Surface 488); label: 3' end held by stalled T7 RNA polymerase
measure_name: Kd (nM)
Numbers only, in nM.

Known Kd results, listed for orientation:
- binder: "target 1 insC 3' of 17,insC 3' of 5 (mixed) RNA 1: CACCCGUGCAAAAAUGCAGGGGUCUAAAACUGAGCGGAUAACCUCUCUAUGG RNA 2: GGGAAUGGAUCCACAUCUACGAAUUCGUACCAUAGCAGAGGUUAUCCGCCUCACCGAGAUCGGAAGAGCACACGU"
  readout_unit: "nM"
  Kd: 61
- binder: "target 2 MT 5'PFS GGG 3'PFS UAG (mixed) RNA 1: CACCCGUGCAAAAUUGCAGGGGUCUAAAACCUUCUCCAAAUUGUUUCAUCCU RNA 2: GGGAAUGGAUCCACAUCUACGAAUUCGGGAGGAUGAAACAAUUUGGAGAAGUAGAGAUCGGAAGAGCACACGU"
  readout_unit: "nM"
  Kd: 8

// input: 2 binders below; output: Kd for each
1. target 1 MT 5'PFS GUC 3'PFS AUU (mixed) RNA 1: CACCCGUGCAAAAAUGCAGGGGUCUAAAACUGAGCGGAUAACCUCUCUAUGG RNA 2: GGGAAUGGAUCCACAUCUACGAAUUCGUCCCAUAGAGAGGUUAUCCGCUCAAUUAGAUCGGAAGAGCACACGU
2. target 3 insU 3' of 22,insG 3' of 1 (mixed) RNA 1: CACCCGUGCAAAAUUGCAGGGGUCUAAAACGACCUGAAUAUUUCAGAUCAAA RNA 2: GGGAAUGGAUCCACAUCUACGAAUUCGUUUUUUGAUCUGAAAUAUUCAGGUCGUGCAGAUCGGAAGAGCACACGU

1: 16.1; 2: 32.5
